Exercise: state measured IC50 for each of the compounds provided.
tgt: Potassium channel subfamily T member 2 (Homo sapiens, UniProt Q6UVM3)
Sequence (Q6UVM3 whole entry): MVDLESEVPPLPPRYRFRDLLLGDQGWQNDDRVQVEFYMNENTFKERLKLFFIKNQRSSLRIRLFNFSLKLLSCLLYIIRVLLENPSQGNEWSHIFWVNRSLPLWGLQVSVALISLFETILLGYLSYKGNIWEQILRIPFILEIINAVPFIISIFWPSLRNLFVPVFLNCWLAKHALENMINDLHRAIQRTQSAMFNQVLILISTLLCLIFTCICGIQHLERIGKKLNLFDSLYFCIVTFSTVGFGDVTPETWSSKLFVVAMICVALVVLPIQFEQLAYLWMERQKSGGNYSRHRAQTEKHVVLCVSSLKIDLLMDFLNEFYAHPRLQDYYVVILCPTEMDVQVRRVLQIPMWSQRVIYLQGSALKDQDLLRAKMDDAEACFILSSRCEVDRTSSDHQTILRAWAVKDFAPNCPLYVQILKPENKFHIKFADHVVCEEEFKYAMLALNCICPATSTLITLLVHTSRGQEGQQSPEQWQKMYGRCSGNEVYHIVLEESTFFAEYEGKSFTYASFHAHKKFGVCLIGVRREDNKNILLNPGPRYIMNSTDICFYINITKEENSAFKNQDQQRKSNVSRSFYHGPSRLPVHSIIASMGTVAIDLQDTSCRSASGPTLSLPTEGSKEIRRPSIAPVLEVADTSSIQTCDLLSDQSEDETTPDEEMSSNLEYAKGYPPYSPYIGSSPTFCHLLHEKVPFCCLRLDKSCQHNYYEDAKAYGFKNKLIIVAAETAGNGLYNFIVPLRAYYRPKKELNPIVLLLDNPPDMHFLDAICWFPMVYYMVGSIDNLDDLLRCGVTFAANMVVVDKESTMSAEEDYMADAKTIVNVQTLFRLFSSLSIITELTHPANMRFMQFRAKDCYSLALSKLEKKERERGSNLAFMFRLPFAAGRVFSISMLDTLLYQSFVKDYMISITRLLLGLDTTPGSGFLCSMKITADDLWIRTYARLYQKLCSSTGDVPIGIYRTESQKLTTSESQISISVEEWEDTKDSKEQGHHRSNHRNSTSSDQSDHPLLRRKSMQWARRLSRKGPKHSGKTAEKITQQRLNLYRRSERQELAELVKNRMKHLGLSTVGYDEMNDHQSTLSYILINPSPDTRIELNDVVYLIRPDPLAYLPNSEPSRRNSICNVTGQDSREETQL
procedure details: Inhibition of SLICK (unknown origin) expressed in HEK293 cells by thallium flux assay

Query: Please give the measured IC50 for this compound: CCOc1ccccc1S(=O)(=O)N1CC(c2nc(-c3ccc(F)cc3)no2)C1
Reply: 2.3 µM

Query: Do the same for CCOc1ccccc1S(=O)(=O)N1CCC(c2nc(-c3ccc(F)cc3)no2)CC1 please
Reply: > 10 µM

Query: Do the same for Cc1ccc2cccc(S(=O)(=O)N3CC(c4nc(-c5ccc(F)cc5)no4)C3)c2n1 please
Reply: > 10 µM

Query: Do the same for O=S(=O)(c1cccc2cccnc12)N1CC(c2nc(-c3ccc(F)cc3)no2)C1 please
Reply: 5.9 µM

Query: Do the same for CC(C)Oc1ccccc1S(=O)(=O)N1CC(c2nc(-c3ccsc3)no2)C1 please
Reply: > 10 µM

Query: Do the same for CCOc1ccccc1S(=O)(=O)N1CC(c2nc(-c3ccc(F)s3)no2)C1 please
Reply: > 10 µM

Query: Do the same for O=S(=O)(c1cccc2c1OCCC2)N1CC(c2nc(-c3ccc(F)cc3)no2)C1 please
Reply: > 10 µM

Query: Do the same for [2H]C([2H])([2H])C([2H])([2H])Oc1ccccc1S(=O)(=O)N1CC(c2nc(-c3ccc(F)cc3)no2)C1 please
Reply: > 10 µM

Query: Do the same for CCOc1ccccc1S(=O)(=O)N1CC(c2nc(-c3ccsc3)no2)C1 please
Reply: > 10 µM

Query: Do the same for O=S(=O)(c1ccccc1OCC(F)(F)F)N1CC(c2nc(-c3ccc(F)cc3)no2)C1 please
Reply: > 10 µM

Query: Do the same for CCOc1ccccc1S(=O)(=O)N1CC(c2nc(-c3ccc(F)cc3Cl)no2)C1 please
Reply: > 10 µM

* * *

System: HEK293
procedure details: Inhibition of wild-type human SLACK expressed in HEK293 cells assessed as efficacy at 30 uM by thallium flux assay relative to control
Assay type: cell-based
Calls of active or inactive are those of the source. No cut-off for these calls is given here.
parameter: Efficacy

CCOc1ccccc1S(=O)(=O)N1CC[C@H](c2nc(-c3ccc(F)cc3)no2)C1 63%
CCOc1ccccc1S(=O)(=O)N1CC(c2nc(-c3cccc(C)c3)no2)C1 < 10%
CCOc1ccccc1S(=O)(=O)N1CC(c2nc(-c3ccsc3)no2)C1 102%
CCCCOc1ccccc1S(=O)(=O)N1CC(c2nc(-c3ccsc3)no2)C1 inactive
CCCc1ccccc1S(=O)(=O)N1CC(c2nc(-c3ccsc3)no2)C1 79%
CCOc1ccccc1S(=O)(=O)N1CC(c2nc(-c3nccs3)no2)C1 inactive
CCOc1ccccc1S(=O)(=O)[C@H]1C[C@H](c2nc(-c3ccc(F)cc3)no2)C1 52%
CCOc1ccccc1S(=O)(=O)N1CC(c2nc(-c3ccc(Cl)cc3)no2)C1 94%

Query: Please give the measured Efficacy for this molecule: O=S(=O)(c1ccccc1N1CCCCC1)N1CC(c2nc(-c3ccc(F)cc3)no2)C1
Reply: 28%

Query: Do the same for CCOc1ccccc1S(=O)(=O)N1CC(c2nc(-c3ccccc3Cl)no2)C1 please
Reply: 81%

Query: Do the same for CCOc1ccccc1S(=O)(=O)C1CN(c2nc(-c3ccc(F)cc3)no2)C1 please
Reply: 24%

Query: Do the same for CCOc1ccccc1S(=O)(=O)N1CC(c2nc(-c3cccc(Cl)c3)no2)C1 please
Reply: inactive

* * *

procedure details: Metabolic stability in mouse liver microsomes assessed as compound remaining measured after 10 min in presence of NADPH
Format: ADME, Microsome
parameter: Activity (%)
The answer is to be given in %; state only the numeric part.

Query: Please give the measured Activity for this compound: [2H]C([2H])([2H])C([2H])([2H])Oc1ccccc1S(=O)(=O)N1CC(c2nc(-c3ccc(F)cc3)no2)C1
Reply: 63

Query: Do the same for O=S(=O)(c1cccc2c1OCCC2)N1CC(c2nc(-c3ccc(F)cc3)no2)C1 please
Reply: 19

Query: Do the same for CCOc1ccccc1S(=O)(=O)N1CC(c2nc(-c3ccc(F)cc3)no2)C1 please
Reply: 58

Query: Do the same for CCOc1ccccc1S(=O)(=O)N1CC(c2nc(-c3ccc(F)cc3Cl)no2)C1 please
Reply: 59

* * *

procedure details: Metabolic stability in mouse liver microsomes assessed as compound remaining measured after 10 min in presence of NADPH
Type: ADME, Microsome
Exercise: state measured Activity for each of the compounds provided.
The answer is to be given in %; state only the numeric part.

Query: Please give the measured Activity for this compound: O=S(=O)(c1ccccc1OCC(F)(F)F)N1CC(c2nc(-c3ccc(F)cc3)no2)C1
Reply: 57

Query: Do the same for Cc1ccc2cccc(S(=O)(=O)N3CC(c4nc(-c5ccc(F)cc5)no4)C3)c2n1 please
Reply: 26

Query: Do the same for O=S(=O)(c1cccc2cccnc12)N1CC(c2nc(-c3ccc(F)cc3)no2)C1 please
Reply: 71

Query: Do the same for CCOc1ccccc1S(=O)(=O)N1CCC(c2nc(-c3ccc(F)cc3)no2)CC1 please
Reply: 21

* * *

procedure details: Inhibition of wild-type human SLACK expressed in HEK293 cells by thallium flux assay
Assay type: cell-based
Exercise: state measured IC50 for each of the molecules provided.
The answer is to be given in µM; state only the numeric part.

Query: Please give the measured IC50 for this molecule: CCOc1ccccc1S(=O)(=O)N1CC(c2nc(-c3ccc(F)cc3)no2)C1
Reply: 3.2

Query: Do the same for [2H]C([2H])([2H])C([2H])([2H])Oc1ccccc1S(=O)(=O)N1CC(c2nc(-c3ccc(F)cc3)no2)C1 please
Reply: 5.4

Query: Do the same for CCOc1ccccc1S(=O)(=O)N1CC(c2nc(-c3ccc(F)cc3F)no2)C1 please
Reply: 6.5

Query: Do the same for CCCOc1ccccc1S(=O)(=O)N1CC(c2nc(-c3ccsc3)no2)C1 please
Reply: 2.6

Query: Do the same for CCOc1ccccc1S(=O)(=O)N1CC(c2nc(-c3cccs3)no2)C1 please
Reply: 6.9

Query: Do the same for CCOc1ccccc1S(=O)(=O)N1CC(c2nc(-c3ccc(Cl)cc3F)no2)C1 please
Reply: 7.2

Query: Do the same for CCOc1ccccc1S(=O)(=O)N1CC(c2nc(-c3cnsc3)no2)C1 please
Reply: 6.6

Query: Do the same for CCOc1ccccc1S(=O)(=O)N1CC(c2nc(-c3ccc(F)cc3Cl)no2)C1 please
Reply: 2.1

Query: Do the same for CCOc1ccccc1S(=O)(=O)N1CC(c2nc(-c3ccc(C(F)(F)F)cc3)no2)C1 please
Reply: 3.8

* * *

System: HEK293
procedure details: Inhibition of wild-type human SLACK expressed in HEK293 cells assessed as efficacy at 30 uM by thallium flux assay relative to control
Format: cell-based
parameter: Efficacy

Query: Please give the measured Efficacy for this molecule: CCOc1ccccc1S(=O)(=O)N1CC(c2nc(-c3ccc(F)cc3)no2)C1
Reply: 105%

Query: Do the same for O=S(=O)(c1ccccc1N1CCCC1)N1CC(c2nc(-c3ccc(F)cc3)no2)C1 please
Reply: 92%

Query: Do the same for O=S(=O)(c1ccccc1OCC(F)(F)F)N1CC(c2nc(-c3ccc(F)cc3)no2)C1 please
Reply: 91%

Query: Do the same for O=S(=O)(c1ccccc1OCC1CCC1)N1CC(c2nc(-c3ccc(F)cc3)no2)C1 please
Reply: 88%

* * *

procedure details: Inhibition of wild-type human SLACK expressed in CHO cells by whole cell voltage clamp electrophysiology assay
Type: cell-based
reported conditions: Cricetulus griseus
pIC50: −log10 of the molar value.
Classify as follows. Reported pIC50 greater than or equal to 6: class 1. Reported pIC50 below: class 0.

Query: Determine whether measured pIC50 meets or exceeds 6 for CCOc1ccccc1S(=O)(=O)N1CC(c2nc(-c3ccc(F)cc3Cl)no2)C1
Reply: class 1

Query: Do the same for CCOc1ccccc1S(=O)(=O)N1CC(c2nc(-c3ccsc3)no2)C1 please
Reply: class 1

Query: Do the same for O=S(=O)(c1cccc2cccnc12)N1CC(c2nc(-c3ccc(F)cc3)no2)C1 please
Reply: class 0

Query: Do the same for CCOc1ccccc1S(=O)(=O)N1CCC(c2nc(-c3ccc(F)cc3)no2)CC1 please
Reply: class 0

* * *

Test system: HEK293
procedure details: Inhibition of wild-type human SLACK expressed in HEK293 cells assessed as efficacy at 30 uM by thallium flux assay relative to control
Type: cell-based
The source made the active and inactive calls. The calls are words filed in the database; no cut-off is given here.
parameter: Efficacy

Answered examples (5):
Cc1nnc2c(S(=O)(=O)N3CC(c4nc(-c5ccc(F)cc5)no4)C3)cccn12 inactive
CCOc1ccccc1S(=O)(=O)N1CC(c2nc(-c3ccncc3)no2)C1 inactive
CCNc1ccccc1S(=O)(=O)N1CC(c2nc(-c3ccsc3)no2)C1 inactive
CCOc1ccccc1S(=O)(=O)N1CC(c2nc(-c3cccc(C(F)(F)F)c3)no2)C1 48%
CCOc1ccccc1S(=O)(=O)N1CC(c2nc(-c3ccc(F)cn3)no2)C1 inactive

Query: Form: Entry = Cc1ccc(S(=O)(=O)N2CC(c3nc(-c4ccsc4)no3)C2)cc1 | System = HEK293 | Efficacy = ____
Reply: inactive

Query: Do the same for CCOc1ccccc1S(=O)(=O)N1CC(c2nc(-c3ncccn3)no2)C1 please
Reply: inactive

Query: Do the same for CCOc1ccccc1S(=O)(=O)N1CC(c2nc(-c3ccccc3F)no2)C1 please
Reply: 88%

Query: Do the same for O=S(=O)(c1ccccc1OC1CCCC1)N1CC(c2nc(-c3ccc(F)cc3)no2)C1 please
Reply: 93%

Query: Do the same for CCOc1ccccc1S(=O)(=O)N1CC(c2nc(-c3cccnc3)no2)C1 please
Reply: inactive

Query: Do the same for O=S(=O)(c1ccc(Cl)cc1)N1CC(c2nc(-c3ccsc3)no2)C1 please
Reply: inactive

Entry source: ChEMBL document CHEMBL5390224
